Experiment: yeast display, Sf9 membrane polyspecificity reagent, FACS + sequencing; frameworks hold sequencing errors
metric: polyreactivity (PSR sort gate)

>>> value_measured("QVQLVESGGGLVQAGGSLRLSCAASGSTFSSYAMGWYRQAPGKERELVAAISKHAGSTYYADSVKGRFTISRDNAKNTVYLQMNSLKPEDTAVYYCAKDSSVQAYYGYWYTSTDDYWGQGTQVTVSS")
"low polyreactivity"
>>> value_measured("QVQLVESGGGLLQAGGSLRLSCAASGLIFVVNDMGCYTQAPGKERELVAAISYSGSSTYGDSVKGRFTISRDNAKNTVYLQMNSMNPEDTAVYYCARGSTVRTRGVGYWGQGTLVTVSS")
"low polyreactivity"
>>> value_measured("QVQLVESGGGLVQAGGSLRLSCAASGRTFGPYSMGWYRQAPGKERELVAAISSSGSTTYYADSVKGRFTISRDNAKNTVYLQMNSLKPEDTAVYYCAKPSSRDSPYDYWGQGSQVTVSS")
"low polyreactivity"

###

Test: yeast display, Sf9 membrane polyspecificity reagent, FACS + sequencing; frameworks hold sequencing errors
metric: polyreactivity (PSR sort gate)

>>> value_measured("QVQLVESGGGLVQAGGSLRLSCAASGFAFSYYAMGWYRPAPGKEREFVASIDWSGGSTYYADSVKGRFTISRDNAKNTVYLQMTSLKPEDTAVYYCAAELDYFPGYDYWGQGTQVTVSS")
"low polyreactivity"
>>> value_measured("QVQLVESGGGLVQAGGSLRLSCAASGSILASYAMGWYRQAPGKERELVAAINRGGRTKYADSVKGRFTISRDNAKNTVYLQMNSLKPEDTAVYYCAKSDSQYEGDGYWGQGTQVTVSS")
"high polyreactivity"
>>> value_measured("QVQLVESGGGLVQAGGSLRLSCAASGITFGGNAMGWYRQDPGKERELVAAISSSGGSTYYADSVKGRFTISRDNAKNTVYLQMNSLKPEDTAVYYCAARNRYPLRFYYWGQGTQVTVSS")
"high polyreactivity"
>>> value_measured("KVQLVESGGGLVQAGGSLRLSCAASGSIISPNAMGWYRQAPGKERELVAGITQSGGSTYYADSVKGRFTISRDNAKNTVYLQMNSLKPEDTAVYYCSVDFILGWYSYYYWGQGTQVTVSS")
"high polyreactivity"
>>> value_measured("QVQLVESGGGLVQAGGSLRLSCAASGRIFKYYSMGWYRQAPGKERELVAAITRGGSTNYADSVKGRFTISRDNAKNTFYLQMKSLKTEDTEVYYCAVDTVRNHLMDYWGQGNQVTVSS")
"low polyreactivity"

Request: Assign polyreactivity (PSR sort gate) to the following record: `QVQLVESGGGLVQAGGSLRLSCAASGSIFGYNAMGWYRQAPGKERELVAAISYSGGRTYYADSVKGRFTISRDNAKNTVYLQMNSLKPEDTAVYYCAKYKVGYVPSGYRYDSWGQGTQVTVSS`
Result: high polyreactivity

Request: Assign polyreactivity (PSR sort gate) to the following record: `QVQLVESGGGLVQAGGSLRLSCAASGRIFYGNVIGWYRQAPGKERELVADIYYDGGSTYYADSVKGRFTISRDNAKNTVYLQMNSLKPEDTAVYYCNKREVFIYGTTYDYWGQGTQVTVSS`
Result: low polyreactivity

###

Assay: yeast display, Sf9 membrane polyspecificity reagent, FACS + sequencing; frameworks hold sequencing errors
metric: polyreactivity (PSR sort gate)

Answered cases to consult:
>>> value_measured("QVQIVESGGGLFQAGGSIRLSCSASGFTFAFYSMGWYRQAPGKERQLVAAISWSGGSTYYADSVKWRFTISRDNAKNTVYLQMNSLKPEDNAVYYCNTDRGPIGDHYDYWGQGTQVTVSS")
"high polyreactivity"
>>> value_measured("QVQLVESGGGLVQAGGSLRLSCAASGFTFVPYAMGWYIQAPGKERELVAAISSRGDSTYYADSVKGRFTISRDNAKNTVYLQMNSLKPEDTAVYYCNARTTPHMDYWGQGTQVTVSS")
"low polyreactivity"
>>> value_measured("QVQLEESGGGLVQAGGSLRLICAASGRTCGSNTMGWYRQAPGKERELVAASTISCGSTYYADSVKGRFTFSRDNAKNTVYLQMNSLKPDVTALDYCATRLWGQGGGRTTSYMYYWGQGTQVTVSS")
"high polyreactivity"
>>> value_measured("QVQLVESGGGLVQAGGSLRLSCAASGSNFTYYAMGWYRQAPGKEREFVAAINRSGGSTYYADSVKGRFTISRDNAKNTVYLQMNSLKPEDTAVYYCAARRGSGALRYNYWGQGTQVTVSS")
"high polyreactivity"

Request: Assign polyreactivity (PSR sort gate) to the following record: `QVQLVESGGGLVQAGGSLRLSCAASGRIFWPYAMGWYRQAPGKERELVAAITSGGSTYYADSVKGRFTISRDNAKNTVYLQMNSLKPEDTAVYYCNAKLRRHYDHLYDYWGQGTQVTVSS`
Result: low polyreactivity

Data credit: the nanobody polyreactivity screen of Harvey et al. (2022)
